Experiment: detection-format interference in TR-FRET ratio – biochemical, artefact control for PPARgamma SRC-2 agonist project, primary screen (AID 1049)
Conditions: TR-FRET artefact counter-screen; at 8 µM
The whole screen tested about 200,000 compounds, of which about 780 (0.39%) were called active. Rule as the data show it: active = TR-FRET ratio above about 2000; inactive = the rest. The sample holds actives, similar compounds and a random draw of the others, so the mix is not that of the screen.
Labels: active, inactive

compound	assigned class
Cc1ccc(/C=N\n2c(-c3ccccc3)n[nH]c2=S)s1	inactive
COc1cc(SC#N)ccc1N=Cc1c(C)[nH]n(-c2ccc(C)cc2)c1=O	active
CCn1c(=O)cc(SCC(=O)NCc2ccc3c(c2)OCO3)c2ccccc21	active
CCc1nnc(NS(=O)(=O)c2ccc(N=Cc3c(C)[nH]n(-c4ccc(C)cc4)c3=O)cc2)s1	inactive
Cc1ccc(-c2csc(SCC(=O)Nc3cc(C)on3)n2)cc1	inactive
CC(=O)c1ccc(S(=O)(=O)N2CCN(c3nc4c(C)c(C)ccc4cc3C#N)CC2)cc1	active
CCCCN(C(=O)c1ccc(OC(F)(F)F)cc1)c1c(N)n(CCC)c(=O)[nH]c1=O	inactive
O=C1NC(c2ccccc2)=NC1(Nc1ccccn1)C(F)(F)F (stereo not given)	inactive
Cc1cc(C)c2c(c1)cc(C)c1nnc(SCC(=O)Nc3cc(C)on3)n12	active
Cn1c(-c2sccc2OCc2cccc(C(F)(F)F)c2)n[nH]c1=S	inactive
